Origin of the recorded values: PubChem BioAssay (NCI)

Test system: NCI-H460 lung
EXPERIMENT_SUMMARY: NCI-60 one-dose screen, 48 h
TEST_CONTEXT: 10 µM unless noted
This is part of a sample that, as a whole, favours compounds with a hit. Of some 83,000 tested, about 20% had one in any assay. Active and inactive are the calls of the source. Rule for the calls: active = growth percent below 10; inactive = the rest.
Assign a class; possible classes are active, inactive

{"MOLECULE": "COc1ccc(/C=C\\c2cc(OC)c(OC)c(OC)c2)cc1NS(=O)(=O)c1ccc(Cl)cc1", "ASSIGNED_LABEL": "inactive"}
{"MOLECULE": "COc1ccc2c(c1)c(C1(O)CC(CSC#N)OC1=O)cn2C(=O)c1ccc(Cl)cc1 (configuration not stated)", "ASSIGNED_LABEL": "inactive"}
{"MOLECULE": "COc1ccc2c(c1)c(-c1nc(-c3c[nH]c4ncccc34)cs1)cn2CCN1CCOCC1", "ASSIGNED_LABEL": "inactive"}
{"MOLECULE": "O=NNc1ccccn1", "ASSIGNED_LABEL": "inactive"}
{"MOLECULE": "NC(=O)c1c(Br)n(C2OC(CO)C(O)C2O)c2ncnc(N)c12 (configuration not stated)", "ASSIGNED_LABEL": "inactive"}
{"MOLECULE": "COc1ccc(C(O)(C(=O)O)c2ccc(OC)cc2)cc1", "ASSIGNED_LABEL": "inactive"}
{"MOLECULE": "COC(=O)[C@@H](C)C[C@H](Cc1ccccc1)NC(=O)c1csc([C@@H](C[C@H](C(C)C)N(C)C(=O)[C@@H](NC(=O)[C@H]2CCCCN2C)C2CC2)OC(C)=O)n1", "ASSIGNED_LABEL": "inactive"}
{"MOLECULE": "CC(C)(C)C(=O)OCOP(=O)(OCOC(=O)C(C)(C)C)C1CCCN(O)C1=O (configuration not stated)", "ASSIGNED_LABEL": "active"}
{"MOLECULE": "O=[N+]([O-])c1ccc(OP(=O)(CCl)N(CCCl)CCCl)cc1 (configuration not stated)", "ASSIGNED_LABEL": "inactive"}
{"MOLECULE": "COC(=O)[C@@H](C[C@H](Cc1ccccc1)NC(=O)c1csc([C@@H](C[C@H](C(C)C)N(C)C(=O)[C@@H](NC(=O)[C@H]2CCCCN2C)C(C)C)OC(C)=O)n1)NC(=O)OCc1ccccc1", "ASSIGNED_LABEL": "active"}

Ask: Please state the recorded outcome for this molecule: `O=P(Oc1ccc(Cl)cc1)(N1CC1)N1CC1`
Result: inactive

Ask: Please state the recorded outcome for this molecule: `COC[C@@H]1C[C@@]2(C)[C@@H](CC[C@@H]3[C@@H]2CC[C@@]2(C)[C@H]3CC[C@]2(C)O)CC1=O`
Result: inactive

----------
System: HCT-116 colon
EXPERIMENT_SUMMARY: NCI-60 one-dose screen, 48 h (100 = growth as untreated, 0 = no growth, -100 = all killed)
TEST_CONTEXT: 10 µM unless noted
About 83,000 compounds went through this panel and 20% of them were active in at least one assay; those are over-represented in the sample as a whole. The source made the active and inactive calls. Rule for the calls: active = growth percent below 10; inactive = the rest.
Consider the following molecules and their measured growth readings.

{"MOLECULE": "CC1(C)N=C(N)N=C(N)N1c1cccc(CCCCc2ccc(Cl)c(S(=O)(=O)F)c2)c1", "DATA_VALUE": "17.7% (inactive)"}
{"MOLECULE": "NC(=O)C(Br)c1ccccc1 (stereo not drawn)", "DATA_VALUE": "82.8% (inactive)"}

Sample `CCc1ccccc1[C@@H]1C[C@]2(C)CCO[C@@H]2OO1` ; growth observed: 96.3% (inactive)
